target: adult human AChR (α, β, δ, ε) (Homo sapiens, UniProt P02708+Q04844+Q07001); assay: cell-based
reported endpoint: IC50 (nM)
Answer in nM, number only, no unit symbol.

Task item: Sample COc1cc2c3cc1Oc1cc(ccc1O)C[C@@H]1c4c(cc(OC)c(O)c4Oc4ccc(cc4)C[C@@H]3N(C)CC2)CC[N+]1(C)C — what was its IC50?
Reply: 50
